# experimental protocol: Protein binding in human plasma at 5 uM
# Type: ADME, cell-free
# assay setup: read-out: PPB
quantity kind: fraction unbound at 5 µM

# fraction unbound at 5 µM of `CCO[C@H]1CCN(Cc2c(OC)cc(C)c3[nH]ccc23)[C@H](c2ccc(C(=O)O)cc2)C1` = 0.26 to 0.43

###

Exercise: for every item that follows, state its recorded pIC50.
// field semantics: pIC50 = negative decimal log of concentration (mol/L)

Entry Cc1cc(C)c2[nH]ccc2c1CN1CCCCC1CCS(C)(=O)=O (racemic) ; assay system Complement factor B (Homo sapiens); pIC50 recorded at 4.92

The observed pIC50 for Cc1cc(C)c2[nH]ccc2c1CN1CCCCC1CNC(N)=O (racemic) when tested with Complement factor B (Homo sapiens) stands at 4.57
